All values here come from PubChem BioAssay AID248.

- System: L1210 leukemia ip in BDF1 mice, survival T/C
- experiment-summary: NCI In Vivo Anticancer Drug Screen. Data for tumor model L1210 Leukemia (intraperitoneal) in B6D2F1 (BDF1) mice
- conditions-used: endpoint: mean survival time; dose: 100.0 mg/kg/injection; schedule: Q01DX001 (ip); vehicle: saline; higher = longer survival
Toxic doses and inconclusive results are not listed.
quantity: T/C

In [3]: df
Out[3]:
                                    compound      assay_result
 0           CCOC(=O)C/C(=C/c1ccco1)C(=O)OCC   86 % of control
 1  O=C(Nc1cccc(Cl)c1)C1CCCC1=Nc1cccc(Cl)c1 (stereo not given)  100 % of control
 2  O=C1C=CC(=O)C2C3C=CC(CC3)C12 (stereo not given)  107 % of control
 3            CCOC(=O)/C(C)=N/Nc1cc(Cl)ccc1O   95 % of control
 4                      c1ccc(SCc2cccnc2)nc1   97 % of control
 5  CC(=O)OC1COC(n2cnc3c(N4CCCCC4)nc(Cl)nc32)C(OC(C)=O)C1OC(C)=O (stereo not given)  102 % of control
 6   C[N+](C)(Cc1ccccc1)/N=C(\[O-])Cc1ccccc1   95 % of control
 7  COC1C=CC(OC)(C(OC)OC)O1 (stereo not given)  104 % of control
 8               O=c1[nH]cc(B(O)O)c(=O)[nH]1   94 % of control
 9       CC(C)=N/N=C(/C(=O)c1ccccc1)c1ccccc1  109 % of control
10  O=C1c2c(O)cccc2C(C2OC(CO)C(O)C(O)C2O)c2cc(CO)cc(O)c21 (stereo not given)   98 % of control
11  O=[N+]([O-])c1ccc2c(N=Nc3c(O)ccc4ccccc34)c(O)cc(S(=O)(=O)O)c2c1   92 % of control
12  O=[n+]1c2c(n([O-])c3ccccc31)-c1cccc3cccc-2c13   88 % of control
13       Cc1ccccc1NC1=C(Cl)C(=O)c2ccccc2C1=O   93 % of control
14  CC1(C)CC(C)(c2ccc(-n3c(-c4ccccc4)nc4ccccc4c3=O)cc2)c2ccccc2S1 (stereo not given)   91 % of control
15  CC1(C)OC(=O)C(C#N)C1c1ccc(Cl)cc1 (stereo not given)  101 % of control
16        O=C(O)c1ccc2c3c(ccc(C(=O)O)c13)CC2  104 % of control
17  Nc1ncnc2c1c1c(N)[nH]nc1n2C1OC(CO)C(O)C1O (stereo not given)  104 % of control
18  COc1c2c(c(OC(C)=O)c3c1C(=O)c1ccccc1C3=O)CCCC2   93 % of control
19  CCCCCCCCCCCC(=O)NC(CCC(=O)O)C(=O)O (stereo not given)  111 % of control
20  O/N=C(/Cc1ccccc1)CC(O)(C(F)(F)F)C(F)(F)F  110 % of control
21                      CC(C)(C)S/C=C/C(N)=O   91 % of control
22                 CCCCNP(=S)(NCCCC)c1ccccc1   98 % of control
23             CC(=N/NC(N)=S)/C(C)=N/NC(N)=S  110 % of control
24  OCC1OC(n2cnc3c(SSc4ncnc5c4ncn5C4OC(CO)C(O)C4O)ncnc32)C(O)C1O (stereo not given)   95 % of control
